pIC50: −log10 of the molar value.
Assay read-out pIC50 on Serine/threonine-protein kinase A-Raf (Homo sapiens, UniProt P10398); records merged from the literature.

smiles_record=Cc1cnc2[nH]cc(C(=O)c3c(F)ccc(NS(=O)(=O)c4ncn[nH]4)c3F)c2c1 parameter_measured=pIC50 assay_result="≥ 5.00"
smiles_record=N#Cc1ccnc2[nH]cc(C(=O)c3c(F)ccc(NS(=O)(=O)c4ccc(F)cc4F)c3F)c12 parameter_measured=pIC50 assay_result="≥ 5.00"
smiles_record=Cc1cnc2[nH]cc(C(=O)c3c(F)ccc(NS(=O)(=O)c4cccc(F)c4)c3F)c2c1 parameter_measured=pIC50 assay_result="> 8.00"
smiles_record=CCCS(=O)(=O)Nc1ccc(F)c(C(=O)c2c[nH]c3ncc(-c4cnc(N(C)C)nc4)cc23)c1F parameter_measured=pIC50 assay_result="≥ 5.00"
smiles_record=CCCS(=O)(=O)Nc1ccc(F)c(C(=O)c2c[nH]c3ncc(-c4ccc(O)nc4)cc23)c1F parameter_measured=pIC50 assay_result="≥ 5.00"

**Query** // pIC50 lookup, key: CCS(=O)(=O)Nc1ccc(F)c(C(=O)c2c[nH]c3nccc(Cl)c23)c1F
**Result** ≥ 5.00

**Query** Looking for the measured pIC50 of CCCS(=O)(=O)Nc1cccc(C(=O)c2c[nH]c3ncc(-c4cnc(N(C)C)nc4)cc23)c1F , can you help?
**Result** > 8.00

**Query** Would you kindly share the measured pIC50 for COc1ccc(CNc2ccc(Cc3c[nH]c4ncncc34)c(F)n2)cn1 ?
**Result** ≥ 5.00

---

Record: compiled IC50 on Serine/threonine-protein kinase A-Raf (Homo sapiens, UniProt P10398) from multiple reports.

Sample records with IC50:
smiles_record=CC(C)S(=O)(=O)Nc1ccc(F)c(C(=O)c2c[nH]c3ncc(Cl)cc23)c1F assay_result="≤ 10 µM"
smiles_record=O=C(c1c(F)ccc(NS(=O)(=O)CC(F)(F)F)c1F)c1c[nH]c2nccc(Cl)c12 assay_result="≤ 10 µM"
smiles_record=CCCS(=O)(=O)Nc1ccc(F)c(C(=O)c2c[nH]c3ncc(-c4ccc(OCCCN5CCOCC5)nc4)cc23)c1F assay_result="< 0.01 µM"

**Query** Please state recorded IC50 (tested on Serine/threonine-protein kinase A-Raf (Homo sapiens, UniProt P10398)) of Clc1ccccc1CNc1ccc(Cc2c[nH]c3ncncc23)cn1
**Result** ≤ 10 µM
